Recorded AC50 for the following molecules
- TESTED_TARGET: Prostaglandin G/H synthase 1 (Rattus norvegicus, UniProt Q63921); note: assay procedure not described here
- Sequence (Q63921 whole entry): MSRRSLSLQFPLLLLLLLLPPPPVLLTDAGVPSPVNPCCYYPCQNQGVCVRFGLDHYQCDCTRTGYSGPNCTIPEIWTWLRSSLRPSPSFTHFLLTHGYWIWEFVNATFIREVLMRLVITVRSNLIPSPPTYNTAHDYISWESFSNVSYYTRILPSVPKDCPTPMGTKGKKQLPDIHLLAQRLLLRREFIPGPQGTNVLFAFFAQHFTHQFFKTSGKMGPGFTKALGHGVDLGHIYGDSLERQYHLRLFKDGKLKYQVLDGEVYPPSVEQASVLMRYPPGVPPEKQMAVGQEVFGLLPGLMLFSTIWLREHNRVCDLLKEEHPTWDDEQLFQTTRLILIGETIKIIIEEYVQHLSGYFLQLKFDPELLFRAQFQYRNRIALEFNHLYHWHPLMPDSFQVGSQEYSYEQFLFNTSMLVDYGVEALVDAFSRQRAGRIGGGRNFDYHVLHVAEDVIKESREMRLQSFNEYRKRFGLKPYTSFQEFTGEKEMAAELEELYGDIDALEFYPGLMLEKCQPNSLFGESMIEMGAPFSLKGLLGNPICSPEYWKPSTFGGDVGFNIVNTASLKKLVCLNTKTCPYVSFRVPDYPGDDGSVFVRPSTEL
- Assay type: functional

MOLECULE: COc1cc2c(cc1OC)C(CCc1ccc(Cl)cc1)N(C)CC2 (centres undefined) [METHOPHOLINE]
TESTED_TARGET: Prostaglandin G/H synthase 1 (Rattus norvegicus, UniProt Q63921); note: assay procedure not described here
RELATION_QUALIFIER: =
AC50, nM: 770
//
MOLECULE: CN1C[C@H](C(=O)N[C@]2(C)O[C@@]3(O)[C@@H]4CCCN4C(=O)[C@H](Cc4ccccc4)N3C2=O)C=C2c3cccc4[nH]cc(c34)C[C@H]21 [ERGOTAMINE]
TESTED_TARGET: Prostaglandin G/H synthase 1 (Rattus norvegicus, UniProt Q63921); note: assay procedure not described here
RELATION_QUALIFIER: =
AC50, nM: 26000
//
MOLECULE: COc1ccc(-c2noc(CC(=O)O)c2-c2ccc(OC)cc2)cc1 [MOFEZOLAC]
TESTED_TARGET: Prostaglandin G/H synthase 1 (Rattus norvegicus, UniProt Q63921); note: assay procedure not described here
RELATION_QUALIFIER: =
AC50, nM: 37
//
MOLECULE: Clc1ccc2c(N3CCN(CCCN4CCN(c5ccnc6cc(Cl)ccc56)CC4)CC3)ccnc2c1 [PIPERAQUINE]
TESTED_TARGET: Prostaglandin G/H synthase 1 (Rattus norvegicus, UniProt Q63921); note: assay procedure not described here
RELATION_QUALIFIER: >
AC50, nM: 30000

---

- TESTED_TARGET: 3',5'-cyclic-AMP phosphodiesterase 4A (Homo sapiens); note: assay procedure not described here
- Sequence (P27815 whole entry): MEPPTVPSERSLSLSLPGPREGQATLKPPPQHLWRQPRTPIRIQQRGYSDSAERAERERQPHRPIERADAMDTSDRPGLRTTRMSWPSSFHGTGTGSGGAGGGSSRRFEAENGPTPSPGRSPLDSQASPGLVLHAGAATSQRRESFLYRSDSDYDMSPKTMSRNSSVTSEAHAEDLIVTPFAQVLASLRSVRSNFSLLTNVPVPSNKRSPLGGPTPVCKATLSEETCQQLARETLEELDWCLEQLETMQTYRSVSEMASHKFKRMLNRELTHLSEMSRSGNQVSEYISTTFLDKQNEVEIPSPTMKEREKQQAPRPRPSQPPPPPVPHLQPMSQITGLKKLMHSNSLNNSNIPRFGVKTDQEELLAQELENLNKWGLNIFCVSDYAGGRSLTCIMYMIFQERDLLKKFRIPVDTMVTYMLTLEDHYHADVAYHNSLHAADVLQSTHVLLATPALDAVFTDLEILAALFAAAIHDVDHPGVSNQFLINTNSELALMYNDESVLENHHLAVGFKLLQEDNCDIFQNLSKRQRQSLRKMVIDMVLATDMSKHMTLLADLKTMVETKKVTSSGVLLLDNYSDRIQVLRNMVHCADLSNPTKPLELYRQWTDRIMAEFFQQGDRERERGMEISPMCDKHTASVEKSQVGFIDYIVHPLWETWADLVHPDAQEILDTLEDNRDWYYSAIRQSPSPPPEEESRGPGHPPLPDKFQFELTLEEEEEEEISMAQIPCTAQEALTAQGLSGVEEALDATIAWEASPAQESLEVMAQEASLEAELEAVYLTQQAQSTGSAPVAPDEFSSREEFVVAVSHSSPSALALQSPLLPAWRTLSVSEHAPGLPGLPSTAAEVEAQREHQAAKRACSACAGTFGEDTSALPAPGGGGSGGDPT
- Format: functional
Recorded AC50 for the following compounds

COMPOUND: O=C(O)COc1ccc(C(=O)c2cccs2)c(Cl)c1Cl
AC50: > 30 µM
//
COMPOUND: CC(C)Cc1ccc(C(C)C(=O)O)cc1 (centres undefined)
AC50: > 30 µM
//
COMPOUND: CCCc1nc(C(C)(C)O)c(C(=O)O)n1Cc1ccc(-c2ccccc2-c2nnn[nH]2)cc1
AC50: > 30 µM
//
COMPOUND: Nc1ccc(C(=O)Oc2ccccc2)c(O)c1 [PHENYL AMINOSALICYLATE]
AC50: 14.5 µM
//
COMPOUND: CNC(=O)Oc1cccc2ccccc12
AC50: > 30 µM
//
COMPOUND: N[C@@H](CO)C(=O)O
AC50: > 30 µM
//
COMPOUND: OC[C@H]1O[C@@](CO)(O[C@H]2O[C@H](CO)[C@@H](O)[C@H](O)[C@H]2O)[C@@H](O)[C@@H]1O
AC50: > 30 µM
//
COMPOUND: Cc1cc(N)c2ccccc2[n+]1CCCCCCCCCC[n+]1c(C)cc(N)c2ccccc21
AC50: 3.16 µM
//
COMPOUND: COc1cc(N2CCC(N3CCN(C)CC3)CC2)ccc1Nc1ncc(Cl)c(Nc2ccccc2P(C)(C)=O)n1
AC50: > 30 µM

---

- TESTED_TARGET: Alpha-2A adrenergic receptor (Homo sapiens); note: assay procedure not described here
- Sequence (P08913 whole entry): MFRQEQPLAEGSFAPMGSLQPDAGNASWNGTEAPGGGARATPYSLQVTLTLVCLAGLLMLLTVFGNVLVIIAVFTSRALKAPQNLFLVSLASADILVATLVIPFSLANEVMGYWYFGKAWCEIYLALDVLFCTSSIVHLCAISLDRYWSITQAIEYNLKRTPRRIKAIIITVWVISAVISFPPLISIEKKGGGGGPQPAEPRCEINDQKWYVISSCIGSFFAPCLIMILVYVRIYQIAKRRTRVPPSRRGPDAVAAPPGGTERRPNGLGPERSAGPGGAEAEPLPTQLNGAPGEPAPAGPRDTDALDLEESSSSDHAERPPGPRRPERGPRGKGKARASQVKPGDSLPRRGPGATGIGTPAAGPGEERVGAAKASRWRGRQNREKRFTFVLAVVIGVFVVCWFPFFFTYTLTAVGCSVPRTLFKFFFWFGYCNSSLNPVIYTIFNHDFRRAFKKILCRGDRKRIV
- Assay type: functional, cell-based

COMPOUND: C=C1/C(=C\C=C2/CCC[C@]3(C)[C@@H]([C@H](C)/C=C/[C@@H](O)C4CC4)CC[C@@H]23)C[C@@H](O)C[C@@H]1O [CALCIPOTRIENE]
TESTED_TARGET: Alpha-2A adrenergic receptor (Homo sapiens); note: assay procedure not described here
AC50: > 30 µM

COMPOUND: CCN(CC)CCNC(=O)c1c(C)[nH]c(/C=C2\C(=O)Nc3ccc(F)cc32)c1C [SUNITINIB]
TESTED_TARGET: Alpha-2A adrenergic receptor (Homo sapiens); note: assay procedure not described here
AC50: > 30 µM

COMPOUND: COc1ccc2nc3cc(Cl)ccc3c(Nc3cc(CN4CCCC4)c(O)c(CN4CCCC4)c3)c2n1 [PYRONARIDINE]
TESTED_TARGET: Alpha-2A adrenergic receptor (Homo sapiens); note: assay procedure not described here
AC50: > 30 µM

COMPOUND: CCN(CC)CCNC(=O)c1cc(S(C)(=O)=O)ccc1OC [TIAPRIDE]
TESTED_TARGET: Alpha-2A adrenergic receptor (Homo sapiens); note: assay procedure not described here
AC50: > 30 µM

COMPOUND: COc1ccc(CC2c3cc(OC)c(OC)cc3CC[N+]2(C)CCC(=O)OCCCCCOC(=O)CC[N+]2(C)CCc3cc(OC)c(OC)cc3C2Cc2ccc(OC)c(OC)c2)cc1OC (stereo not given)
TESTED_TARGET: Alpha-2A adrenergic receptor (Homo sapiens); note: assay procedure not described here
AC50: > 30 µM

COMPOUND: C[C@@H](NCCCc1cccc(C(F)(F)F)c1)c1cccc2ccccc12
TESTED_TARGET: Alpha-2A adrenergic receptor (Homo sapiens); note: assay procedure not described here
AC50: > 30 µM

COMPOUND: C#CCOc1ccc(N)cc1C(=O)NCCCC [PARSALMIDE]
TESTED_TARGET: Alpha-2A adrenergic receptor (Homo sapiens); note: assay procedure not described here
AC50: > 30 µM

COMPOUND: CC(=O)[C@@]1(O)CC[C@H]2[C@@H]3C=C(Cl)C4=CC(=O)[C@@H]5C[C@@H]5[C@]4(C)[C@H]3CC[C@@]21C [CYPROTERONE]
TESTED_TARGET: Alpha-2A adrenergic receptor (Homo sapiens); note: assay procedure not described here
AC50: > 10 µM

COMPOUND: O=C1CN=C(c2ccccc2)c2cc([N+](=O)[O-])ccc2N1 [NITRAZEPAM]
TESTED_TARGET: Alpha-2A adrenergic receptor (Homo sapiens); note: assay procedure not described here
AC50: > 10 µM

COMPOUND: CC1=C(C)C(=O)C(C(CCCCCC(=O)O)c2ccccc2)=C(C)C1=O (stereo not given) [SERATRODAST]
TESTED_TARGET: Alpha-2A adrenergic receptor (Homo sapiens); note: assay procedure not described here
AC50: > 30 µM

COMPOUND: C=C[C@@]1(C)CC(=O)[C@]2(O)[C@@]3(C)[C@@H](O)CCC(C)(C)[C@@H]3[C@H](O)[C@H](OC(C)=O)[C@@]2(C)O1 [COLFORSIN]
TESTED_TARGET: Alpha-2A adrenergic receptor (Homo sapiens); note: assay procedure not described here
AC50: > 30 µM

COMPOUND: C#C[C@]1(OC(C)=O)CC[C@H]2[C@@H]3CCC4=C/C(=N/O)CC[C@@H]4[C@H]3CC[C@@]21CC [NORGESTIMATE]
TESTED_TARGET: Alpha-2A adrenergic receptor (Homo sapiens); note: assay procedure not described here
AC50: > 30 µM

COMPOUND: Cc1onc(-c2ccccc2)c1-c1ccc(S(N)(=O)=O)cc1 [VALDECOXIB]
TESTED_TARGET: Alpha-2A adrenergic receptor (Homo sapiens); note: assay procedure not described here
AC50: > 10 µM

COMPOUND: CC(S)C(=O)NCC(=O)O (stereo not given) [TIOPRONIN]
TESTED_TARGET: Alpha-2A adrenergic receptor (Homo sapiens); note: assay procedure not described here
AC50: > 30 µM

COMPOUND: Cc1ncc2n1-c1ccc(Cl)cc1C(c1ccccc1F)=NC2 [MIDAZOLAM]
TESTED_TARGET: Alpha-2A adrenergic receptor (Homo sapiens); note: assay procedure not described here
AC50: > 10 µM

COMPOUND: Oc1ccc2c(c1)CC[C@H](c1ccccc1)[C@@H]2c1ccc(OCCN2CCCC2)cc1 [LASOFOXIFENE]
TESTED_TARGET: Alpha-2A adrenergic receptor (Homo sapiens); note: assay procedure not described here
AC50: 10 µM

COMPOUND: CC(N)C(O)c1ccccc1 (stereo not given) [PHENYLPROPANOLAMINE]
TESTED_TARGET: Alpha-2A adrenergic receptor (Homo sapiens); note: assay procedure not described here
AC50: > 10 µM

COMPOUND: OC1(c2ccc(Cl)cc2)c2ccccc2C2=NCCN21 (stereo not given) [MAZINDOL]
TESTED_TARGET: Alpha-2A adrenergic receptor (Homo sapiens); note: assay procedure not described here
AC50: > 30 µM

COMPOUND: CC(C(=O)O)c1ccc(-c2ccccc2)c(F)c1 (stereo not given) [FLURBIPROFEN]
TESTED_TARGET: Alpha-2A adrenergic receptor (Homo sapiens); note: assay procedure not described here
AC50: > 10 µM

COMPOUND: CN1CCC(=C2c3ccccc3CCc3cccnc32)CC1 [AZATADINE]
TESTED_TARGET: Alpha-2A adrenergic receptor (Homo sapiens); note: assay procedure not described here
AC50: > 10 µM
